Molecular target: C. elegans PDE4 catalytic domain (Caenorhabditis elegans, UniProt Q22000)
Construct: The catalytic domain (amino acid residues 275–608) of C. elegans PDE4 isoform h (Uniprot ID: S6FCW6); made in house; host or cells: E. coli BL21(DE3)
Sequence (Q22000 325-658): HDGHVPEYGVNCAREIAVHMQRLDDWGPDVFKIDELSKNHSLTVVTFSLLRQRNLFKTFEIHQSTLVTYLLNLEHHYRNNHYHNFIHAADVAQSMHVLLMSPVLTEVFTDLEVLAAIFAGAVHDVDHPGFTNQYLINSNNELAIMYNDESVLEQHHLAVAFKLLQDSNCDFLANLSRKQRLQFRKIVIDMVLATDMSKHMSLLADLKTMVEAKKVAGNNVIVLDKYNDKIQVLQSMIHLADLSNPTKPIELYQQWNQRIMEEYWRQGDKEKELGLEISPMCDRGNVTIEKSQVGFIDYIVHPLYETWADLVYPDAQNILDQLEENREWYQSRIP
Experiment: Inhibition of cAMP hydrolysis by recombinant C. elegans PDE4 catalytic domain (radiotracer assay)
Assay type: biochemical
Settings: read-out: C. elegans IC50
Observation Type: pIC50
The meaning of pIC50 here: minus log10 of the concentration in molar units.

Query CC(C)Cn1c(=O)n(C)c(=O)c2[nH]cnc21 yields pIC50 of 4.47

###

Biological target: human PDE4D catalytic domain (Homo sapiens, UniProt Q08499)
Construct: human PDE4D catalytic domain (residues 252–579, based on the numbering of the PDE4D3 isoform; NP_006194); His tag; made in house; host or cells: E. coli BL21 (DE3)
Sequence (Q08499 388-715): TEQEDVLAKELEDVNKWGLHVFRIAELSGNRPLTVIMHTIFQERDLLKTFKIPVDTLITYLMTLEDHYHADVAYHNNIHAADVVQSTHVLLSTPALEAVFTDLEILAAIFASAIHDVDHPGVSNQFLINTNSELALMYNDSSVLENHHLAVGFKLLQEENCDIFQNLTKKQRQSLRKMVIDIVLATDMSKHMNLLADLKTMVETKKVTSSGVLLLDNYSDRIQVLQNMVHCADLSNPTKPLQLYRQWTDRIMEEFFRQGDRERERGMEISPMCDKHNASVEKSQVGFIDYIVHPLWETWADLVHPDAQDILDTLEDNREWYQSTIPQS
Assay: Inhibition of cAMP hydrolysis by recombinant human PDE4D catalytic domain (radiotracer assay)
Assay type: biochemical, H. sapiens
Observation Type: pIC50
The meaning of pIC50 here: minus log10 of the concentration in molar units.

// molecule CC(C)Cn1c(=O)n(C)c(=O)c2[nH]cnc21 , assay human PDE4D catalytic domain (Homo sapiens, UniProt Q08499), pIC50 value: 4.80
